System: MDA-MB-231;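 also: viability of the cells left after supernatant collection, read with Deep Blue dye added for 4 h, as absorbance at 570 nm minus 600 nm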
measurement notes: cell viability relative to vehicle unstimulated control (fraction); higher = more viable cells
assay setup: pre-treatment time: 18 h then 24 h IFNg/TNF
Label Condition met when cell viability is strictly below 1; otherwise label Condition not met.

molecule: C[C@@H]1O[C@@H](O[C@H]2[C@H](OC(=O)[C@]34CCC(C)(C)C[C@H]3C3=CC[C@@H]5[C@@]6(C)C[C@H](O)[C@H](O[C@@H]7O[C@H](CO)[C@@H](O)[C@H](O)[C@H]7O)C(CO)(CO)[C@@H]6CC[C@@]5(C)[C@]3(C)C[C@H]4O)OC[C@H](O)[C@@H]2O)[C@H](O)[C@H](O)[C@H]1O[C@@H]1OC[C@@H](O)[C@H](O[C@@H]2OC[C@](O)(CO)[C@H]2O)[C@H]1O [Platycodin D] (compound dose: 10 uM)
discrete label: Condition met

molecule: CC(C)=CCC[C@@](C)(O)[C@H]1CC[C@]2(C)[C@@H]1[C@H](O)C[C@@H]1[C@@]3(C)CC[C@H](O)C(C)(C)[C@@H]3CC[C@]12C [(20R)-Protopanaxadiol] (compound dose: 10 uM)
discrete label: Condition met

molecule: COC(=O)C1=C2CCOC3=C2C2=C1C(=O)[C@@H]1C[C@H]4N(C[C@@H](CC3)[C@@]24C)C[C@H]1C [Daphnicyclidin D] (compound dose: 10 uM)
discrete label: Condition met

molecule: CC(C)=CC/C=C(\C)[C@H]1CC[C@]2(C)[C@@H]1[C@H](O)C[C@@H]1[C@@]3(C)CC[C@H](O[C@@H]4O[C@H](CO)[C@@H](O)[C@H](O)[C@H]4O[C@@H]4O[C@H](CO)[C@@H](O)[C@H](O)[C@H]4O)C(C)(C)[C@@H]3CC[C@]12C [Ginsenoside Rg5] (compound dose: 10 uM)
discrete label: Condition met

molecule: COc1ccc2c(c1O)-c1c(O)c(OC)cc3c1[C@H](C2)[N+](C)(C)CC3 [Magnoflorine] (compound dose: 10 uM)
discrete label: Condition met

molecule: O=c1c(O)c(-c2ccc(O)cc2)oc2cc(O)cc(O)c12 [Kaempferol] (compound dose: 10 uM)
discrete label: Condition met

molecule: CC(C)(O)[C@@H]1CC[C@](C)([C@H]2[C@@H](O)C[C@@]3(C)[C@@H]4C[C@H](O)[C@H]5C(C)(C)[C@@H](O[C@@H]6OC[C@@H](O)[C@H](O)[C@H]6O[C@@H]6O[C@H](CO)[C@@H](O)[C@H](O)[C@H]6O)CC[C@@]56C[C@@]46CC[C@]23C)O1 [Astragaloside III] (compound dose: 10 uM)
discrete label: Condition not met

molecule: C=C(C)[C@@H]1CC=C(C)C(=O)C1 [L(-)-carvone] (compound dose: 10 uM)
discrete label: Condition met

molecule: C[C@@H]1CC[C@]2(C(=O)O)CC[C@]3(C)C(=CC[C@@H]4[C@@]5(C)C[C@@H](O)[C@@H](O)C(C)(C)[C@@H]5CC[C@]43C)[C@@H]2[C@]1(C)O [Euscaphic acid] (compound dose: 10 uM)
discrete label: Condition met

molecule: C/C1=C/CC[C@H](C)C(=O)C[C@@H](C(C)C)C(=O)C1 [Curdione] (compound dose: 10 uM)
discrete label: Condition met

molecule: C/C(=C\C(=O)CC(C)C(=O)O)[C@H]1C[C@H](O)[C@@]2(C)C3=C(C(=O)C[C@]12C)[C@@]1(C)CCC(=O)C(C)(C)[C@@H]1C[C@@H]3O (stereo not given in full) [Ganoderenic acid A] (compound dose: 10 uM)
discrete label: Condition not met

molecule: CC1=CC(=O)[C@@H]2C[C@H]1C2(C)C [Verbenone] (compound dose: 10 uM)
discrete label: Condition not met
